Biological target: T1, human MIC-1 receptor (hGFRAL, GDNF family receptor alpha like), full length (human, UniProt Q6UXV0 19-394)
T1 sequence (looked up): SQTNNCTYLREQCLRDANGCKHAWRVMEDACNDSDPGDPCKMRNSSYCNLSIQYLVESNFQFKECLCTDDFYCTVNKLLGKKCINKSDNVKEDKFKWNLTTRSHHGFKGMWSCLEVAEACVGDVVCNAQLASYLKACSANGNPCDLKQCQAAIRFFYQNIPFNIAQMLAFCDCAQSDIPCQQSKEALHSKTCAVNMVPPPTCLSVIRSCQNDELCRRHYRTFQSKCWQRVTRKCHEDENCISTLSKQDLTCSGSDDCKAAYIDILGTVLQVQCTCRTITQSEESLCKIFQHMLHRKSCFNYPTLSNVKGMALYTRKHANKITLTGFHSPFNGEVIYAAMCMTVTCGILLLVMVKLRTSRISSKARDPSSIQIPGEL
Assay: cell-based or functional assay
Below, each entry is listed with its recorded Emax (%).
Dear colleague, please return just the value in %, with no unit written.

binder	Emax (%)
MIC-1(R2A,N3E,K107E) (ligand) AAEGDHCPLGPGRCCRLHTVRASLEDLGWADWVLSPREVQVTMCIGACPSQFRAANMHAQIKTSLHRLKPDTVPAPCCVPASYNPMVLIQKTDTGVSLQTYDDLLAEDCHCI	100
SEPATSGSETPGTSESATPESGPGTSTEPS-MIC-1-Δ1-3 (ligand) SEPATSGSETPGTSESATPESGPGTSTEPSGDHCPLGPGRCCRLHTVRASLEDLGWADWVLSPREVQVTMCIGACPSQFRAANMHAQIKTSLHRLKPDTVPAPCCVPASYNPMVLIQKTDTGVSLQTYDDLLAKDCHCI	100

Let us move to another entry and its Emax (%).
Query (binder): TSESATPESGPGTSESATPESGPG-MIC-1(R2A,N3E) (ligand) TSESATPESGPGTSESATPESGPGAAEGDHCPLGPGRCCRLHTVRASLEDLGWADWVLSPREVQVTMCIGACPSQFRAANMHAQIKTSLHRLKPDTVPAPCCVPASYNPMVLIQKTDTGVSLQTYDDLLAKDCHCI ; field requested: Emax (%)
100
